systemUnderTest: Carboxy-terminal domain RNA polymerase II polypeptide A small phosphatase 1 (Homo sapiens) (UniProt Q9GZU7)
Sequence (Q9GZU7 76-261 limits assumed): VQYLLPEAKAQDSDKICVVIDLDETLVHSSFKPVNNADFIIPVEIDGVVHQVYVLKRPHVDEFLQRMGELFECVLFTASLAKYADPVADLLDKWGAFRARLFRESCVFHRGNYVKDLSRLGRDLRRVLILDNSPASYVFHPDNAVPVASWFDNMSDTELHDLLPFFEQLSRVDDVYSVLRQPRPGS
experimentDescription: Scp-1 phosphatase inhibitors, primary screen, biochemical, colorimetric, uHTS (AID 493091)
protocolConditions: Recombinant Scp1, phosphopeptide, malachite green phosphate absorbance; at 20 µM; active compounds read high
Among all 340,000 compounds or so, about 3,000 (0.88%) were called active. The full list was thinned out, with actives kept by preference.
Tag: satisfied if measured inhibition is not below 60%, not satisfied if it is.

| compound | cat |
| --- | --- |
| Cc1ccc(-n2c(O)c(C=Nc3ccc(S(=O)(=O)Nc4ncccn4)cc3)c3ccccc3c2=O)cc1C | not satisfied |
| Nn1cnnc1N/N=C/c1cc([N+](=O)[O-])c(Cl)cc1Cl | satisfied |
| Cc1ccc(N=Cc2c(O)n(-c3nccs3)c(=O)c3ccccc23)c(C)c1 | not satisfied |
| COC(=O)c1ccccc1NC(=O)C1(S(=O)(=O)c2ccc(Cl)cc2)CC1 | satisfied |
| COc1ccc(C(=O)C2CCCN(Cc3cccn3-c3ccccn3)C2)c(C)c1 (configuration not stated) | not satisfied |
| O=C(NC(=S)Nc1ccc(Cl)c(C(=O)O)c1)c1cncc(Br)c1 | not satisfied |

====

systemUnderTest: Carboxy-terminal domain RNA polymerase II polypeptide A small phosphatase 1 (Homo sapiens)
experimentDescription: Scp-1 phosphatase inhibitors, primary screen, biochemical, colorimetric, uHTS (AID 493091)
protocolConditions: Recombinant Scp1, phosphopeptide, malachite green phosphate absorbance; at 20 µM
Screen size: about 340,000 compounds; about 3,000 (0.88%) were called active.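 The calls were made as follows: active = inhibition above about 50% at 20 µM (limit read from the data); inactive = the rest.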 The list comes from a sample in which actives are over-represented; it also holds close analogues and randomly drawn compounds.
Labels: true (active), false (inactive)

| compound | cat |
| --- | --- |
| ON=C1/C(=N\O)CC2(C/C1=N/O)OCCO2 | true |
| O=C(Oc1ccc2c(c1)CCC2)N1CCOCC1 | false |
| Cc1ccccc1C1CC(c2cccs2)=NN1S(C)(=O)=O (centres undefined) | false |
| O=C(Cn1cnc2ccccc2c1=O)Nc1cccc(S(=O)(=O)N2CCCCC2)c1 | false |
| Cc1cc(C)cc(C(=O)NC2C(=O)N3C(C(=O)O)=C(CSc4nnc(C)s4)CSC23)c1 (centres undefined) | false |
| Cc1nc([N+](=O)[O-])cn1CC(=O)Nc1ccc2c(c1)OCO2 | false |
| CC(=O)c1cccc(NC(=O)C2COc3ccccc3O2)c1 (centres undefined) | false |
| COc1cc(SC)ccc1C(=O)NNC(=O)C1COc2ccccc2O1 (centres undefined) | true |
| O=S(=O)(Nc1ccc(O)c2ccccc12)c1ccc(OC(F)(F)F)cc1 | false |
| Cc1ccc(-c2noc(C3CCCN(C(=O)c4cccc(Cl)c4)C3)n2)o1 (centres undefined) | false |
| O=c1c(-c2ccccc2)cnc2n1CCS2 | false |
| Cc1ccc(Cc2nnc(SCC(=O)Nc3ccc(C)cc3C)[nH]c2=O)cc1 | true |
| O=c1c2cc(-c3ccccc3)sc2nc2n1N=C(c1cccs1)CS2 | true |
| Cc1ccccc1C(=O)NCC(c1ccco1)N1CCc2ccccc21 (centres undefined) | false |
| CCN(CC)CCN(C(=O)c1cccc([N+](=O)[O-])c1)c1nc2ccc(OC)cc2s1 | false |
| COc1ccc(S(=O)(=O)NCCc2cc3ccc(C)c(C)c3[nH]c2=O)cc1 | false |
| Cc1c(-c2nn(C)c(=O)c3ccccc23)oc2ccc(F)cc2c1=O | false |
| C=CC1=C(C(=O)O)N2C(=O)[C@@H](NC(=O)/C(=N\OCC(=O)O)c3csc(N)n3)[C@H]2SC1 | true |
| COc1cc(SC)ccc1C(=O)N(Cc1ccccc1)c1ccccc1 | false |
